System: Klebsiella pneumoniae ATCC 13883
// reported MIC per item
measured_parameter: MIC

>>> measured_value("O=C(N/N=C/c1ccccc1[N+](=O)[O-])c1ccc(O)cc1O")
"500 µg/mL"
>>> measured_value("CCCc1ccc(/C=N/NC(=O)c2ccc(O)cc2O)cc1")
"1000 µg/mL"
>>> measured_value("CCOc1ccc(/C=N/NC(=O)c2ccc(O)cc2O)cc1")
"> 1000 µg/mL"
>>> measured_value("O=C1CN(/N=C/c2ccc([N+](=O)[O-])o2)C(=O)N1 [NIT, nitrofurantoin, reference compound]")
"15.6 µg/mL"
>>> measured_value("O=C(N/N=C/c1ccc([N+](=O)[O-])cc1)c1ccc(O)cc1O")
"> 1000 µg/mL"
>>> measured_value("O=C(N/N=C/c1ccc(O)c(Br)c1)c1ccc(O)cc1O")
"> 1000 µg/mL"
>>> measured_value("O=C(N/N=C/c1ccccc1F)c1ccc(O)cc1O")
"> 1000 µg/mL"
>>> measured_value("COc1ccc(/C=N/NC(=O)c2ccc(O)cc2O)cc1Cl")
"> 1000 µg/mL"
>>> measured_value("Cc1cccc(/C=N/NC(=O)c2ccc(O)cc2O)c1")
"1000 µg/mL"

----------
Tested on: Escherichia coli ATCC 25922
measured_parameter: MIC

>>> measured_value("O=C1CN(/N=C/c2ccc([N+](=O)[O-])o2)C(=O)N1 [NIT, nitrofurantoin, reference compound]")
"7.81 µg/mL"
>>> measured_value("Cc1ccc(/C=N/NC(=O)c2ccc(O)cc2O)cc1")
"> 1000 µg/mL"
>>> measured_value("CCOc1cc(/C=N/NC(=O)c2ccc(O)cc2O)ccc1OC")
"> 1000 µg/mL"
>>> measured_value("Cc1ccccc1/C=N/NC(=O)c1ccc(O)cc1O")
"> 1000 µg/mL"
>>> measured_value("CCCOc1ccc(/C=N/NC(=O)c2ccc(O)cc2O)cc1")
"> 1000 µg/mL"
>>> measured_value("O=C(N/N=C/c1ccc([N+](=O)[O-])cc1)c1ccc(O)cc1O")
"> 1000 µg/mL"
>>> measured_value("COc1ccc(/C=N/NC(=O)c2ccc(O)cc2O)cc1Br")
"> 1000 µg/mL"
>>> measured_value("CCOc1ccc(/C=N/NC(=O)c2ccc(O)cc2O)cc1")
"> 1000 µg/mL"
>>> measured_value("COc1cc(/C=N/NC(=O)c2ccc(O)cc2O)cc(I)c1O")
"> 1000 µg/mL"
>>> measured_value("CCCc1ccc(/C=N/NC(=O)c2ccc(O)cc2O)cc1")
"1000 µg/mL"
>>> measured_value("O=C(N/N=C/c1ccccc1[N+](=O)[O-])c1ccc(O)cc1O")
"1000 µg/mL"
>>> measured_value("COc1ccc(/C=N/NC(=O)c2ccc(O)cc2O)c(Br)c1O")
"> 1000 µg/mL"

----------
System: Bacillus cereus ATCC 10876
Assay: Broth microdilution MIC/MBC
Assay type: cell-based
// reported MBC/MIC per item
measured_parameter: MBC/MIC

>>> measured_value("O=C(N/N=C/c1cc(Br)c(O)c(Br)c1)c1ccc(O)cc1O")
"> 4"
>>> measured_value("CCCc1ccc(/C=N/NC(=O)c2ccc(O)cc2O)cc1")
"> 1"
>>> measured_value("O=C(N/N=C/c1ccccc1F)c1ccc(O)cc1O")
"> 1"
>>> measured_value("O=C(N/N=C/c1cc(I)cc(I)c1O)c1ccc(O)cc1O")
4
>>> measured_value("COc1cc(/C=N/NC(=O)c2ccc(O)cc2O)cc(I)c1O")
"> 1"
>>> measured_value("CCCCOc1ccc(/C=N/NC(=O)c2ccc(O)cc2O)cc1")
"> 1"
>>> measured_value("CCOc1ccc(/C=N/NC(=O)c2ccc(O)cc2O)cc1")
"> 2"
>>> measured_value("Cc1cccc(/C=N/NC(=O)c2ccc(O)cc2O)c1")
2
>>> measured_value("O=C(N/N=C/c1ccccc1[N+](=O)[O-])c1ccc(O)cc1O")
"> 4"
>>> measured_value("COc1ccc(/C=N/NC(=O)c2ccc(O)cc2O)cc1Cl")
4

----------
System: Staphylococcus aureus ATCC 29213
Assay: Broth microdilution MIC/MBC
Format: cell-based
Excerpt: In vitro antimicrobial activity assays - Methodology […]
measured_parameter: MBC/MIC

>>> measured_value("COc1cc(/C=N/NC(=O)c2ccc(O)cc2O)cc(I)c1O")
"> 1"
>>> measured_value("O=C(N/N=C/c1ccccc1[N+](=O)[O-])c1ccc(O)cc1O")
"> 1"
>>> measured_value("O=C(N/N=C/c1ccc([N+](=O)[O-])cc1)c1ccc(O)cc1O")
"> 2"
>>> measured_value("O=C(N/N=C/c1ccc(O)c(Br)c1)c1ccc(O)cc1O")
"> 4"

----------
Test system: Staphylococcus epidermidis ATCC 12228
Test: Broth microdilution MIC/MBC
Type: cell-based
measured_parameter: MBC/MIC

>>> measured_value("CCCOc1ccc(/C=N/NC(=O)c2ccc(O)cc2O)cc1")
"> 1"
>>> measured_value("O=C(N/N=C/c1ccc(O)c(Br)c1)c1ccc(O)cc1O")
2
>>> measured_value("O=C(N/N=C/c1cc(I)cc(I)c1O)c1ccc(O)cc1O")
8
>>> measured_value("CCCc1ccc(/C=N/NC(=O)c2ccc(O)cc2O)cc1")
"> 1"
>>> measured_value("CCCCOc1ccc(/C=N/NC(=O)c2ccc(O)cc2O)cc1")
2

----------
System: Danio rerio embryos
Test: Fish Embryo Acute Toxicity (FET) test, OECD No. 236
Conditions: FET test, based on LC50
measured_parameter: toxicity for zebrafish embryos and larvae (in words)

>>> measured_value("O=C(N/N=C/c1ccccc1Cl)c1ccc(O)cc1O [Compound 22]")
"quite toxic"
>>> measured_value("O=C(N/N=C/c1ccccc1F)c1ccc(O)cc1O [Compound 24]")
"nontoxic"
>>> measured_value("O=C(N/N=C/c1ccccc1Br)c1ccc(O)cc1O [Compound 23]")
"quite toxic"
>>> measured_value("O=C(N/N=C/c1cccc([N+](=O)[O-])c1)c1ccc(O)cc1O [Compound 20]")
"nontoxic"

----------
System: Staphylococcus aureus ATCC 43300
Experiment: Broth microdilution MIC/MBC
Format: cell-based
Settings: Staphylococcus aureus ATCC 43300 (MRSA)
Source text: In vitro antimicrobial activity assays - Methodology […]
measured_parameter: MBC/MIC

>>> measured_value("O=C(N/N=C/c1ccc(O)c(Br)c1)c1ccc(O)cc1O")
2
>>> measured_value("Cc1cccc(/C=N/NC(=O)c2ccc(O)cc2O)c1")
2
>>> measured_value("O=C(N/N=C/c1cc(I)cc(I)c1O)c1ccc(O)cc1O")
8
>>> measured_value("COc1ccc(/C=N/NC(=O)c2ccc(O)cc2O)cc1Br")
16
>>> measured_value("COc1ccc(/C=N/NC(=O)c2ccc(O)cc2O)cc1Cl")
4

----------
// reported MIC per item
Tested on: Candida albicans ATCC 2091
Assay: Broth microdilution MIC/MFC
Format: cell-based
Conditions: ATCC2091, read-out: MIC
measured_parameter: MIC (µg/mL)

>>> measured_value("O=C(N/N=C/c1ccccc1Cl)c1ccc(O)cc1O")
1000
>>> measured_value("CCCCOc1ccc(/C=N/NC(=O)c2ccc(O)cc2O)cc1")
500
>>> measured_value("O=C(N/N=C/c1cc(I)cc(I)c1O)c1ccc(O)cc1O")
500
>>> measured_value("COc1cc(/C=N/NC(=O)c2ccc(O)cc2O)cc(I)c1O")
250
>>> measured_value("O=C(N/N=C/c1ccc([N+](=O)[O-])cc1)c1ccc(O)cc1O")
1000
>>> measured_value("O=C(N/N=C/c1ccccc1[N+](=O)[O-])c1ccc(O)cc1O")
500

----------
Tested on: Staphylococcus aureus ATCC 29213
Assay: Broth microdilution MIC/MBC
Format: cell-based
measured_parameter: MBC/MIC

>>> measured_value("Cc1ccccc1/C=N/NC(=O)c1ccc(O)cc1O")
"> 1"
>>> measured_value("O=C(N/N=C/c1cc(Br)c(O)c(Br)c1)c1ccc(O)cc1O")
32
>>> measured_value("COc1ccc(/C=N/NC(=O)c2ccc(O)cc2O)cc1Br")
16
>>> measured_value("Cc1cccc(/C=N/NC(=O)c2ccc(O)cc2O)c1")
1
>>> measured_value("O=C(N/N=C/c1cc(I)cc(I)c1O)c1ccc(O)cc1O")
2

----------
System: Bacillus cereus ATCC 10876
Assay: Broth microdilution MIC/MBC
Format: cell-based
measured_parameter: MBC/MIC

>>> measured_value("O=C(N/N=C/c1ccc(O)c(Br)c1)c1ccc(O)cc1O")
"> 4"
>>> measured_value("O=C(N/N=C/c1ccc([N+](=O)[O-])cc1)c1ccc(O)cc1O")
"> 2"
>>> measured_value("CCOc1cc(/C=N/NC(=O)c2ccc(O)cc2O)ccc1OC")
"> 2"
>>> measured_value("COc1ccc(/C=N/NC(=O)c2ccc(O)cc2O)cc1Br")
2
